B1: HDV Ribozyme (parent)
chain: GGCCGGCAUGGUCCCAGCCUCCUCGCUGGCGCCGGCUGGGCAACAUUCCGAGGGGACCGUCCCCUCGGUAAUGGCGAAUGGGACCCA

Variants of: B1
Test: self-cleavage, relative activity (ratio to wild type); higher = more cleavage; co-transcriptional
Measured self-cleavage values are reported for all entries that follow.

- Mutant label: "C41U C57U"
  self-cleavage: 1.12
- Mutant label: "C32G U37A"
  self-cleavage: 0.293
- Mutant label: "C48U C57G"
  self-cleavage: 0.798
- Mutant label: "U65A A77G"
  self-cleavage: 0.643
- Mutant label: "C14G C44G"
  self-cleavage: 0.196
- Mutant label: "U9C C75U"
  self-cleavage: 0.138
- Mutant label: "C18U C44A"
  self-cleavage: 0.0978
- Mutant label: "G82A C84A"
  self-cleavage: 0.399
- Mutant label: "U37C C66A"
  self-cleavage: 1.25
- Mutant label: "G1U C84A"
  self-cleavage: 0.408
- Mutant label: "G10A G59C"
  self-cleavage: 0.684
- Mutant label: "C22G A77U"
  self-cleavage: 0.162
- Mutant label: "U79C A83U"
  self-cleavage: 0.323
- Mutant label: "U9A C33U"
  self-cleavage: 0.808
- Mutant label: "U27C G28A"
  self-cleavage: 0.135
- Mutant label: "G53A C62U"
  self-cleavage: 0.926
